These entries and their values trace back to the supplement of paper PMC10724198.

- System: Saccharomyces cerevisiae
- Assay remarks: protein stability index of tFT-peptide fusion (C-terminal peptide) (PSI (0-1 scale)); higher = more stable (slower turnover)
- Particulars: genetic background: wild type; temperature: 30 C
Could you label it true if measured protein stability index is 0.7 or higher, and false otherwise?

# Biopolymer sequence, Label value
records = [
    ("LTIYPLTYCFVS", "false"),
    ("SRRETKTRLAPN", "false"),
    ("CCLGVFFGVGGL", "true"),
    ("LLLPVFLVFSVS", "false"),
]

Query string: Hi, just wondering whether "RSGRGRRGVGWV" shows protein stability index of 0.7 or higher.
Result string: false

Query string: Does the reported protein stability index for "LPPSSSPSYIFS" fall at or above the 0.7 mark?
Result string: true

Query string: Could you verify whether the entry "LLGPSGRAIKIQ" shows protein stability index of no less than 0.7?
Result string: false

Query string: Answer whether protein stability index of "VLFGLSTSSLCL" is greater than or equal to 0.7.
Result string: false

Query string: Is the recorded value of protein stability index equal to or greater than 0.7 for this sequence? "PPPPPLPLCRRP"
Result string: true

Query string: In plain terms: is recorded protein stability index at least 0.7 for "GQSVRELDSIKV" ?
Result string: false

====

- Test system: Saccharomyces cerevisiae
- Assay remarks: protein stability index of tFT-peptide fusion (C-terminal peptide) (PSI (0-1 scale)); higher = more stable (slower turnover)
- Particulars: genetic background: cdc53-1; temperature: 37 C
Decide by protein stability index: equal to or exceeding 0.5 means TRUE, less means FALSE.

# Biopolymer sequence, Label value
data = [
    ("SRLLGVKVSLVC", "TRUE"),
    ("GIKLNVVYILLG", "TRUE"),
    ("AFRFHTYFLLLC", "FALSE"),
    ("VGLWFLCSLAFS", "FALSE"),
    ("PDKRNHLIKLLN", "TRUE"),
    ("CCSGWSVRLLCV", "TRUE"),
    ("VWGLWRLCVWGV", "FALSE"),
    ("MFRSEVSWKLCC", "TRUE"),
    ("VRLSQVNRLICT", "TRUE"),
    ("DVYIVLFIIKHG", "FALSE"),
]

Query string: API: above_or_equal(metric=protein stability index, cutoff=0.5) for item "WFIFATFLILVT"
Result string: FALSE

====

- System: Saccharomyces cerevisiae
- Assay remarks: protein stability index of tFT-peptide fusion (C-terminal peptide) (PSI (0-1 scale)); higher = more stable (slower turnover)
- Particulars: genetic background: wild type; temperature: 30 C
# if value of protein stability index reaches 0.7, tag Yes; if it stays below, tag No

Before answering, review these 8 worked examples.
# Biopolymer sequence, Label value
data = [
    ("RITKKRQQIKKR", "Yes"),
    ("FCLFMFVPLLPL", "No"),
    ("MSKSLQTSSHKT", "No"),
    ("SFVSDYIILIVL", "No"),
    ("KKNKHKEKIKKK", "Yes"),
    ("DYSRCGCRLSGK", "No"),
    ("FLLKKVLCINWQ", "No"),
    ("TLRKTTRHRRNA", "Yes"),
]

Query string: Threshold query (protein stability index >= 0.7) on "SCPAPAALPLPR"
Result string: No

Query string: Identify whether the reported protein stability index of the following sequence is 0.7 or greater: "WMSLLEFGSLCG"
Result string: Yes

Query string: State whether the measured protein stability index reaches 0.7, counting equality as reaching it, for "IAISAPSLLDTS"
Result string: No

Query string: # bool: protein stability index of "RHAMNPNTSRVL" >= 0.7
Result string: No

Query string: Reported protein stability index at or above 0.7? "LRGRRPFSQRAT"
Result string: No

====

- Test system: Saccharomyces cerevisiae
- Assay remarks: protein stability index of tFT-peptide fusion (C-terminal peptide) (PSI (0-1 scale)); higher = more stable (slower turnover)
- Particulars: genetic background: wild type; temperature: 37 C
Note to self: values exactly at 0.5 are yes (1). So protein stability index at or above 0.5 is yes (1), below is no (0).

Example cases with answers are listed next.
# Biopolymer sequence, Label value
measured = [
    ("LWYVQILNIVLN", "no (0)"),
    ("PYLSAPLVATLS", "no (0)"),
]

As a next step, examine the sequence that follows.
Query string: hey, is protein stability index for this one >= 0.5? "GLCFRVCIWVFV"
Result string: no (0)

====

Listed next: entries and their corresponding protein stability index.
- System: Saccharomyces cerevisiae
- Assay remarks: protein stability index of tFT-peptide fusion (C-terminal peptide) (PSI (0-1 scale)); higher = more stable (slower turnover)
- Particulars: genetic background: wild type; temperature: 30 C
// return a plain number; no unit text

# Biopolymer sequence, protein stability index
measured = [
    ("HGLFGRACRASH", 0.66),
    ("AGQGSISCWSKD", 0.707),
]

Query string: May I ask what protein stability index has been recorded for "DVVLVSPCGQMW" ?
Result string: 0.725

Query string: # query: protein stability index of entry "YRARRRPPPSPP"
Result string: 0.682

Query string: Param item = "PSLPPAYPSIAI" ; retrieve measured protein stability index.
Result string: 0.737

Query string: Sample "SAGHHACRRYAG" — what was its protein stability index?
Result string: 0.683

Query string: For the sequence "KSKKERREKKKA" , what protein stability index is on record?
Result string: 0.665

Query string: Given the entry "HSRKVHGLWALR" , report its measured protein stability index.
Result string: 0.695

Query string: Tell me the measured protein stability index of "CIVSARCWRSPY" , please.
Result string: 0.609

Query string: Fill in the blank: the reported protein stability index of "IRPSVCQAPDMR" is ____.
Result string: 0.679

Query string: Look at this sequence and give its reported protein stability index. "CPPFLTPRLAPA"
Result string: 0.778

====

- Tested on: Saccharomyces cerevisiae
- Assay remarks: protein stability index of tFT-peptide fusion (C-terminal peptide) (PSI (0-1 scale)); higher = more stable (slower turnover)
- Particulars: genetic background: wild type; temperature: 30 C
// protein stability index lookup, one value per entry
Please reply with the number alone, leaving off any unit.

Here are 4 sequences together with their reported answers.
# Biopolymer sequence, Test value
data = [
    ("LAYPACLACQAS [VPS69 C-terminal 12 aa]", 0.59),
    ("IIQQNLKKIGII [GPA1 C-terminal 12 aa]", 0.195),
    ("PRRSDLRPEFAE [VMA9 C-terminal 12 aa]", 0.665),
    ("IKPSAEVHINAL [VMA10 C-terminal 12 aa]", 0.743),
]

Query string: Suppose we examine the sequence FSDWKNNNGPHK [IBA57 C-terminal 12 aa] ; what protein stability index value has been reported?
Result string: 0.71

Query string: # input sequence: RKLLERSNKFHI [PET127 C-terminal 12 aa] ; wanted: its protein stability index
Result string: 0.746

Query string: Bench note: what protein stability index did EPKYVDEDDWSD [CEG1 C-terminal 12 aa] show?
Result string: 0.68

Query string: Please give the measured protein stability index for this sequence: ITSLKSDEYLVQ [RET2 C-terminal 12 aa]
Result string: 0.724

Query string: Find the recorded protein stability index belonging to ETRASCLLSRAF [YJL052C-A C-terminal 12 aa] and report it.
Result string: 0.698

Query string: So what does the record say about protein stability index for HEKPHTVSLRHK [CPR4 C-terminal 12 aa] ?
Result string: 0.721

Query string: # protein stability index lookup, item VVCMVVLLAVLS [VAM3 C-terminal 12 aa]
Result string: 0.171

Query string: Consider the sequence shown here: FKAKFRKVKINA [YKR015C C-terminal 12 aa] What is its recorded protein stability index?
Result string: 0.134

Query string: Value lookup for protein stability index; key = IGWSVFAEWLCV [CYK3 C-terminal 12 aa]
Result string: 0.514

Query string: // returns reported protein stability index for input PQMDDHTVISEI [MLO127 C-terminal 12 aa]
Result string: 0.685

Query string: Record request: protein stability index value, item TDVKKFIHELCE [TRP3 C-terminal 12 aa]
Result string: 0.679

Query string: # query: protein stability index of entry YLPRSKWFGILV [ALG14 C-terminal 12 aa]
Result string: 0.165

Query string: Would you mind telling me what protein stability index value was observed for KKKEDKGGLQRS [VHS3 C-terminal 12 aa] ?
Result string: 0.697

====

- System: Saccharomyces cerevisiae
- Assay remarks: protein stability index of tFT-peptide fusion (C-terminal peptide) (PSI (0-1 scale)); higher = more stable (slower turnover)
- Particulars: genetic background: wild type; temperature: 30 C
Catalogue of protein stability index readings, one per entry.

Please review the following examples before continuing.
# Biopolymer sequence, protein stability index
records = [
    ("CPPARLLPHPPA", 0.733),
    ("GKMLCADRSLEY", 0.701),
    ("SPLSLPPPHPPP", 0.654),
]

Query string: Item under review: "PFSLPAFLLPTL" . Reported protein stability index?
Result string: 0.712

Query string: Requested field: protein stability index. Item: "FMACGVNIELRV"
Result string: 0.643

Query string: Query: protein stability index; subject: "ESVPPILGQDPL"
Result string: 0.773
